Test system: pigweed (Amaranthus retroflexus)
Protocol Details: Test A preemergence
Assay type: in vivo
Recorded Conditions: Amaranthus retroflexus, pre-emergence, 240 h, 31 g ai/ha, Preemergence; 0 to 100 scale where 0 is no effect and 100 is complete control; read-out: Pigweed plant response rating
Items are presented alongside their recorded pest or weed control at 31 g/ha.
Give a bare numeral; the unit % is implied.

Below, 7 compounds whose answers are already recorded.
{"columns": ["Compound", "Tested System", "Unit Abbrev", "pest or weed control at 31 g/ha"],
 "data": [
  ["Cc1c(F)cccc1NC(=O)[C@H]1C(=O)N(C)C[C@@H]1c1ccc(C(F)F)cc1", "pigweed (Amaranthus retroflexus)", "%", 0],
  ["CC(C)Oc1cc([C@H]2CN(C)C(=O)[C@@H]2C(=O)Nc2ccccc2F)ccc1F", "pigweed (Amaranthus retroflexus)", "%", 0],
  ["CN1C[C@H](c2csc3c2CCOC3)[C@@H](C(=O)Nc2ccc(F)c(F)c2F)C1=O", "pigweed (Amaranthus retroflexus)", "%", 0],
  ["O=C1NC[C@H](c2ccc(F)c(Oc3ccccc3)c2)[C@H]1C(=O)Nc1cccc(F)c1F", "pigweed (Amaranthus retroflexus)", "%", 0],
  ["CN1CC[C@H](c2ccccc2C(F)(F)F)[C@@H](C(=O)Nc2cccc(F)c2F)C1=O", "pigweed (Amaranthus retroflexus)", "%", 0],
  ["COc1ccc(C(F)(F)F)cc1[C@H]1CN(C)C(=O)[C@@H]1C(=O)Nc1ccccc1F", "pigweed (Amaranthus retroflexus)", "%", 0],
  ["CN1CC(c2cccc(C(F)(F)F)c2)C(C(=O)Nc2ccccc2CO)C1=O (centres unmarked)", "pigweed (Amaranthus retroflexus)", "%", 0]
]}

Now turn to the next compound.
// returns reported pest or weed control at 31 g/ha for input Cc1ccc([C@H]2CN(C)C(=O)[C@@H]2C(=O)Nc2cnccc2C(F)(F)F)cc1
0
